- Read-out: Interferon-gamma inducible Protein 10 (IP10), CXCL10 (gene 3627)
- measurementProtocol: BSK_KF3CT_IP10: BioMAP Diversity Plus: KF3CT Assay for Interferon-gamma inducible Protein 10 (IP10) Biomarker Activity (AID 2283068)
- runConditions: primary human keratinocytes with fibroblasts; actives raise or lower the signal
Active and inactive are the calls of the source. How the source made its calls: active means hit-call score of the fitted dose curve at least 0.9, where 1 is the maximum; inactive means score below 0.9.
endpointLabel: AC50

[[record]]
compound = "S=C(NC1CCCCC1)NC1CCCCC1"
endpointlabel = "AC50"
assayresult = "inactive"

[[record]]
compound = "CCO[Si](CCCN=C=O)(OCC)OCC"
endpointlabel = "AC50"
assayresult = "inactive"

[[record]]
compound = "C#CC1(O)CC[C@H]2[C@@H]3CCC4=CCCC[C@@H]4[C@H]3CC[C@@]21C (stereo not given in full)"
endpointlabel = "AC50"
assayresult = "34 µM (active)"

[[record]]
compound = "COCc1c(C(C)C)nc(C(C)C)c(/C=C/[C@@H](O)C[C@@H](O)CC(=O)O)c1-c1ccc(F)cc1"
endpointlabel = "AC50"
assayresult = "inactive"

[[record]]
compound = "CCCCCCCCCCCCCCCC[N+](C)(C)CC"
endpointlabel = "AC50"
assayresult = "2.96 µM (active)"

[[record]]
compound = "C=CCOCC(O)CCl (stereo not given)"
endpointlabel = "AC50"
assayresult = "inactive"

[[record]]
compound = "CC(C)(c1cc(Br)c(OCCO)c(Br)c1)c1cc(Br)c(OCCO)c(Br)c1"
endpointlabel = "AC50"
assayresult = "9.81 µM (active)"

[[record]]
compound = "CCO[Si](C)(OCC)OCC"
endpointlabel = "AC50"
assayresult = "inactive"

[[record]]
compound = "Nc1ccc(N)c(Cl)c1"
endpointlabel = "AC50"
assayresult = "inactive"

[[record]]
compound = "CCCCC(CC)COC(=O)c1ccccc1O (stereo not given)"
endpointlabel = "AC50"
assayresult = "inactive"


---

- system: Myc proto-oncogene protein (Homo sapiens)
- measurementProtocol: ATG_Myc_CIS: Attagene CIS-FACTORIAL HepG2 Assay for human Myelocytomatosis (Myc) Proto-Oncogene Transcription Factor (AID 2282990)
- runConditions: HepG2, Attagene cis-reporter transcription factor activity; actives raise or lower the signal
Calls of active or inactive are those of the source. The calls were made as follows: active = hit-call score of the fitted dose curve at least 0.9, where 1 is the maximum; inactive = score below 0.9.
endpointLabel: outcome

[[record]]
structureassmiles = "O=C(C=Cc1ccccc1)OCc1ccccc1"
assayresult = "inactive"

[[record]]
structureassmiles = "O=[N+]([O-])c1ccc(CO)cc1"
assayresult = "inactive"

[[record]]
structureassmiles = "C[Si](C)(CCCN)O[Si](C)(C)CCCN"
assayresult = "inactive"


---

- measurementProtocol: ACEA_ER_AUC_viability: ACEA Biosciences xCELLigence Real-Time Cell Analysis on Estrogen Receptor Agonism for Viability (AID 2283782);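 further: continuous compound exposure with impedance area under curve over 80 h; hit means loss of impedance signal meaning reduced cell growth or viability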
Results filed as inconclusive are left out. Activity calls are given as the source filed them. The calls were made as follows: active = hit-call score of the fitted dose curve at least 0.9, where 1 is the maximum; inconclusive = response in the unintended direction; inactive = score below 0.9.
Classes used: yes (active), no (inactive)

[[record]]
molecule = "CC(C)=CC1CC(C)CCO1 (stereo unspecified)"
classassignment = "no"

[[record]]
molecule = "C=C(C)CCO"
classassignment = "yes"

[[record]]
molecule = "C=CC(=O)NC(C)(C)CS(=O)(=O)O"
classassignment = "yes"

[[record]]
molecule = "NC(=O)c1ccccc1O"
classassignment = "no"

[[record]]
molecule = "FC(F)(F)C(=NOCC1OCCO1)c1ccc(Cl)cc1"
classassignment = "yes"

[[record]]
molecule = "CC(C)c1ccc2c(C(C)C)cc(C(C)C)c(S(=O)(=O)O)c2c1"
classassignment = "no"

[[record]]
molecule = "O=[N+]([O-])C1(Br)COCOC1"
classassignment = "yes"

[[record]]
molecule = "C=C[Si](C)(C)O[Si](C)(C)C=C"
classassignment = "no"

[[record]]
molecule = "COCCOCCOCCOCCOC"
classassignment = "no"

[[record]]
molecule = "COC(=O)c1sccc1S(N)(=O)=O"
classassignment = "no"

[[record]]
molecule = "CC1=CC[C@H]2C[C@@H]1C2(C)C"
classassignment = "no"


---

- Read-out: Interleukin-6 (IL6), IL6 (gene 3569)
- measurementProtocol: BSK_CASM3C_IL6: BioMAP Diversity Plus: CASM3C Assay for Interleukin-6 (IL6) Biomarker Activity for (AID 2283040)
- runConditions: primary human coronary artery smooth muscle cells; actives raise or lower the signal
Activity calls are given as the source filed them. How the source made its calls: active means hit-call score of the fitted dose curve at least 0.9, where 1 is the maximum; inactive means score below 0.9.
Outcomes: active, inactive

[[record]]
molecule = "CCCCC(CC)COC(=O)c1ccccc1O (centres undefined)"
classassignment = "inactive"

[[record]]
molecule = "C#CC1(O)CC[C@H]2[C@@H]3CCC4=CCCC[C@@H]4[C@H]3CC[C@@]21C (some centres undefined)"
classassignment = "active"

[[record]]
molecule = "O=C(c1ccc(O)cc1)c1ccc(O)cc1O"
classassignment = "inactive"

[[record]]
molecule = "CC(C)(c1cc(Br)c(OCCO)c(Br)c1)c1cc(Br)c(OCCO)c(Br)c1"
classassignment = "inactive"

[[record]]
molecule = "CCCCC/C=C\\C/C=C\\CCCCCCCC(=O)OC"
classassignment = "active"

[[record]]
molecule = "CC(C)C(=O)C(C)C"
classassignment = "inactive"

[[record]]
molecule = "C=CC(=O)OCC(Br)CBr (centres undefined)"
classassignment = "active"

[[record]]
molecule = "C=CC=CC=CCCCCC"
classassignment = "inactive"

[[record]]
molecule = "c1ccc(-c2ccccn2)nc1"
classassignment = "inactive"

[[record]]
molecule = "CCCCCCCCCCCCCCCC[N+](C)(C)CC"
classassignment = "active"

[[record]]
molecule = "O=C(Nc1ccccc1SSc1ccccc1NC(=O)c1ccccc1)c1ccccc1"
classassignment = "inactive"

[[record]]
molecule = "CCO[Si](C)(OCC)OCC"
classassignment = "inactive"

[[record]]
molecule = "CCO[Si](CCCN=C=O)(OCC)OCC"
classassignment = "inactive"

[[record]]
molecule = "CCCCC(CC)COCC1CO1 (centres undefined)"
classassignment = "inactive"

[[record]]
molecule = "CO[Si](OC)(OC)c1ccccc1"
classassignment = "inactive"

[[record]]
molecule = "C=C[Si](OC(C)=O)(OC(C)=O)OC(C)=O"
classassignment = "inactive"

[[record]]
molecule = "CCOc1nc(F)cc2nc(S(=O)(=O)Nc3c(Cl)cccc3C(=O)OC)nn12"
classassignment = "inactive"

[[record]]
molecule = "c1ccc2c(c1)ccc1cc3c(ccc4ccccc43)cc12"
classassignment = "inactive"

[[record]]
molecule = "COCc1c(C(C)C)nc(C(C)C)c(/C=C/[C@@H](O)C[C@@H](O)CC(=O)O)c1-c1ccc(F)cc1"
classassignment = "inactive"


---

- measurementProtocol: ATG_DR4_LXR_CIS: Attagene CIS-FACTORIAL HepG2 Assay for human Liver X Receptor (LXR), DR4 submotif (AID 2282929)
- runConditions: HepG2 Attagene DR4 cis-reporter, mRNA transcription; actives raise or lower the signal
- Procedure: ATG_CIS is a cell-based, multiplexed-readout assay that uses HepG2, a human liver cell line, with measurements taken at 24 hours after chemical dosing in a 24-well plate.ATG_DR4_LXR_CIS is one of 52 assay component(s) measured or calculated from the ATG_CIS assay. […] This assay endpoint, ATG_DR4_LXR_CIS, was analyzed with bidirectional fitting relative to DMSO as the negative control and baseline of activity. […]
Active and inactive are the calls of the source. The calls were made as follows: active = hit-call score of the fitted dose curve at least 0.9, where 1 is the maximum; inactive = score below 0.9.
Classes used: active, inactive

[[record]]
compound = "[Cl][Nd]([Cl])[Cl]"
classassignment = "inactive"

[[record]]
compound = "CC(=O)c1ccc[nH]1"
classassignment = "inactive"

[[record]]
compound = "CCCCNc1ccc(NCCCC)c2c1C(=O)c1ccccc1C2=O"
classassignment = "inactive"

[[record]]
compound = "CC(C)CCCC(C)CC=O (stereo not drawn)"
classassignment = "inactive"

[[record]]
compound = "CCCCCc1ccc(Cl)cc1"
classassignment = "inactive"

[[record]]
compound = "C=C(C)C(=O)OCCOc1ccccc1"
classassignment = "inactive"

[[record]]
compound = "CC(=O)Nc1ccc2c(c1)Cc1cc(NC(C)=O)ccc1-2"
classassignment = "inactive"

[[record]]
compound = "O=C(O)CCCCCCCCCC(=O)O"
classassignment = "inactive"

[[record]]
compound = "S=C(NC1CCCCC1)NC1CCCCC1"
classassignment = "inactive"

[[record]]
compound = "CCOC(=O)NNc1nncc2ccccc12"
classassignment = "inactive"

[[record]]
compound = "CCCCC/C=C\\CCC=O"
classassignment = "inactive"

[[record]]
compound = "CCO[Si](CCCN=C=O)(OCC)OCC"
classassignment = "inactive"

[[record]]
compound = "CC(C)c1ccc2c(c1)CC[C@H]1[C@](C)(CN)CCC[C@]21C"
classassignment = "active"


---

- measurementProtocol: ATG_ISRE_CIS: Attagene CIS-FACTORIAL HepG2 Assay for human Interferon Regulatory Factor 1 (IRF1) binding to an Interferon-Stimulated Response Element (ISRE) (AID 2282948)
- runConditions: HepG2 ISRE cis-reporter (Attagene), mRNA transcription readout; actives raise or lower the signal
The source made the active and inactive calls. Rule for the calls: active = hit-call score of the fitted dose curve at least 0.9, where 1 is the maximum; inactive = score below 0.9.
Outcome codes: active, inactive

[[record]]
molecule = "CCOC(=O)Cc1cccc2ccccc12"
classassignment = "inactive"

[[record]]
molecule = "OCCN(CCO)c1ccccc1"
classassignment = "inactive"

[[record]]
molecule = "CC(C)c1ccc2c(C(C)C)cc(C(C)C)c(S(=O)(=O)O)c2c1"
classassignment = "inactive"

[[record]]
molecule = "CN(C)c1ccc(N=Nc2ccccc2C(=O)O)cc1"
classassignment = "active"

[[record]]
molecule = "CCCCCCCOC(=O)CCC"
classassignment = "inactive"

[[record]]
molecule = "Cc1ccc(C2OC[C@@H]3OC(c4ccc(C)cc4)O[C@H]([C@H](O)CO)[C@@H]3O2)cc1 (stereo not given in full)"
classassignment = "inactive"

[[record]]
molecule = "O=C(Nc1ccccc1)c1ccccc1O"
classassignment = "inactive"

[[record]]
molecule = "C(=CC=Nc1ccccc1)C=CNc1ccccc1"
classassignment = "inactive"

[[record]]
molecule = "CCCCCCCCCCOS(=O)(=O)O"
classassignment = "inactive"

[[record]]
molecule = "CC(CC=O)c1ccccc1 (stereo not given)"
classassignment = "active"

